- Tested on: T1, Fc-binding protein (the ZZ domain of ProA)
- T1 construct: domain: ZZ domain of ProA; the construct is not described
- Procedure text: flow cytometry on cells expressing the Fc-binding ZZ domain on their surface; given as a measure of expression
Reported property: S:B Expression

[[record]]
binder = "Antibody of common light chain C11 (C11chicken) paired with the heavy chain against CD147 (antibody, V domains shown, also called HC-CD147) VH: AVTLDESGGGLQTPGGGLSLVCKASGFTFSSYAMYWVRQAPGKGLQWVAGISRDGSSGRYGAAVKGRATISRDNGQSTVRLQLNNLRAEDTATYFCAKSGYGDYTSADEIDAWGHGTEVIVSS VL: ALTQPSSVSANPGETVKITCSGGGSWYGSYYYGWYQQKSPGSAPVTLIYNNDKRPSDIPSRFSGSESGSTATLTITGVQAEDEAVYFCGGYDSTTTDMFGAGTTLTVL"
result = "16.6 S:B"

[[record]]
binder = "Antibody of light chain D3 (D3chicken) paired with the heavy chain against IGSF8 (antibody, V domains shown, also called HC-IGSF8) VH: AVTLDESGGGLQTPGGGLSLVCKASGFSISSYEMQWVRQAPGKGLEWVAGIDDDGSSRAYAPAVKGRATISRDNGQSTVRLQLNNLRAEDTGTYYCAKTIYAATLNAGEIDAWGHGTEVIVSS VL: ALTQPSSVSANPGETVKITCSGDDRWYGWYQQKSPGSAPVTLIYSNDKRPSDIPSRFSGSKSGSTGTLTITGVQADDEAVYFCGSRDSSYAGIFGAGTTLTVL"
result = "3.2 S:B"

[[record]]
binder = "Antibody of light chain E1 (E1chicken) paired with the heavy chain against CD81 (antibody, V domains shown, also called HC-CD81) VH: AVTLDESGGGLQTPGGALSLVCKASGFSIGDYNMGWVRQAPGKGLEWVAGIDAGGGTWRATAVKGRATISRDNGQSTVRLQLNNLRAEDTATYFCAKSTDSSANCCANSIDAWGHGTEVIVSS VL: ALTQPSSVSANPGETVKITCSGSSGSGYYGWYQQKSPGSAPVTLIYDNDKRPSDIPSRFSGSKSGSTGTLTITGVQADDEAVYFCGSADNNYTGIFGAGTTLTVL"
result = "1.7 S:B"

[[record]]
binder = "Antibody of light chain E1 (E1chicken) paired with the heavy chain against CD151 (antibody, V domains shown, also called HC-CD151) VH: AVTLDESGGGLQMPGGALSLVCKASGFTFSSYGMEWVRQAPGKGLEWVAGISSGGGSTDYGTAVKGRATISRDNGQSTVRLQLNNLRAEDTGTYFCAKSAYGGTWDGDDIDAWGHGTEVIVSS VL: ALTQPSSVSANPGETVKITCSGSSGSGYYGWYQQKSPGSAPVTLIYDNDKRPSDIPSRFSGSKSGSTGTLTITGVQADDEAVYFCGSADNNYTGIFGAGTTLTVL"
result = "11.3 S:B"

[[record]]
binder = "Antibody of common light chain B9 (B9chicken) paired with the heavy chain against CD63 (antibody, V domains shown, also called HC-CD63) VH: AVTLDESGGGLQTPGGALSLVCKASGFTFSDRGMHWVRQAPGKGLEWVAGIRSTGSFTLYGAAVKGRATISRDDGQSTLRLQLNNLRAEDTGTYYCAKSAGGYGCGRGWCGVDDIDAWGHGTEVIVSS VL: ALTQPSSVSANPGETVKITCSGGGSSNYYGWYQQKSPGSAPVTLIYGTNKRPSDIPSRFSGSKSGSTGTLTITGVQADDEAVYFCGSADSSTNAGIFGAGTTLTVL"
result = "11.3 S:B"

[[record]]
binder = "Antibody of light chain D3 (D3chicken) paired with the heavy chain against CD151 (antibody, V domains shown, also called HC-CD151) VH: AVTLDESGGGLQMPGGALSLVCKASGFTFSSYGMEWVRQAPGKGLEWVAGISSGGGSTDYGTAVKGRATISRDNGQSTVRLQLNNLRAEDTGTYFCAKSAYGGTWDGDDIDAWGHGTEVIVSS VL: ALTQPSSVSANPGETVKITCSGDDRWYGWYQQKSPGSAPVTLIYSNDKRPSDIPSRFSGSKSGSTGTLTITGVQADDEAVYFCGSRDSSYAGIFGAGTTLTVL"
result = "6.5 S:B"

[[record]]
binder = "Antibody of light chain D3 (D3chicken) paired with the heavy chain against CD81 (antibody, V domains shown, also called HC-CD81) VH: AVTLDESGGGLQTPGGALSLVCKASGFSIGDYNMGWVRQAPGKGLEWVAGIDAGGGTWRATAVKGRATISRDNGQSTVRLQLNNLRAEDTATYFCAKSTDSSANCCANSIDAWGHGTEVIVSS VL: ALTQPSSVSANPGETVKITCSGDDRWYGWYQQKSPGSAPVTLIYSNDKRPSDIPSRFSGSKSGSTGTLTITGVQADDEAVYFCGSRDSSYAGIFGAGTTLTVL"
result = "1.8 S:B"


Entry source: patent US20200262898A1
